assay_protocol: SPECT/CT biodistribution of 111In-labeled tracers in HEK-FAP tumor-bearing mice
Format: in vivo, mouse
assay_conditions: mouse, in vivo, iv, 1 h p.i., 30 MBq IV, HEK-FAP mice; read-out: Kidney %ID/g (mean ± SD)
measured_metric: tissue uptake at 1 h (%ID/g)
Use %ID/g as the unit, but write only the number.

Task: // lookup tissue uptake at 1 h for CCCCCC(=O)N[C@H]1CSCc2cc(CSCCNC(=O)CN3CCN(CC(=O)O)CCN(CC(=O)O)CCN(CC(=O)O)CC3)cc(c2)CSC[C@@H](C(=O)O)NC(=O)[C@H](Cc2ccccc2)NC(=O)[C@H](CCC(N)=O)NC(=O)[C@H]([C@@H](C)O)NC(=O)[C@@H]2CCCN2C(=O)[C@@H]2CCCN2C1=O [^111In-FAP-2286, metal not drawn]
Output: 3.9
